target: β1c subunit of isolated human 20S proteasome (Homo sapiens, UniProt P28072); construct: purchased Enzo Life Sciences; assay: Proteasome inhibition assay (20 S Proteasome Assay Kit, Z‐LLE‐AMC); format: biochemical; conditions: c = 1 µM, n=1; read-out: Inhibition cCP β1
Examples of molecules with documented inhibition at 1 µM follow.
Parameter measured: inhibition at 1 µM (%)

[[record]]
molecule = "CC(C)C[C@H](NC(=O)OCc1ccccc1)C(=O)N[C@@H](CC(=O)OC(C)(C)C)C(=O)N[C@@H](CC(C)C)C(=O)C(=O)Nc1cccc(Oc2ccccc2)c1 [Compound 19]"
test_result = -15

[[record]]
molecule = "Cc1ccc(NC(=O)C(=O)[C@H](CC(C)C)NC(=O)[C@H](CC(C)C)NC(=O)[C@H](CC(C)C)NC(=O)OCc2ccccc2)cc1Oc1ccccc1 [Compound 13]"
test_result = -4

[[record]]
molecule = "CC(C)C[C@H](NC(=O)[C@H](CCc1ccccc1)NC(=O)CN1CCOCC1)C(=O)N[C@@H](Cc1ccccc1)C(=O)N[C@@H](CC(C)C)C(=O)[C@@]1(C)CO1 [Carfilzomib 3, Carfilzomib]"
test_result = -18

[[record]]
molecule = "CC(C)C[C@@H](C=O)NC(=O)[C@H](CC(C)C)NC(=O)[C@H](CC(C)C)NC(=O)c1cnccn1 [Compound 23]"
test_result = 19

[[record]]
molecule = "CC(C)C[C@@H](C=O)NC(=O)[C@H](CC(C)C)NC(=O)[C@H](CC(C)C)NC(=O)Cn1cnc2ccccc2c1=O [Compound 22]"
test_result = 28

[[record]]
molecule = "Cc1c(NC(=O)C(=O)[C@H](CC(C)C)NC(=O)[C@H](CC(C)C)NC(=O)[C@H](CC(C)C)NC(=O)OCc2ccccc2)cccc1Oc1ccccc1 [Compound 14]"
test_result = -10

[[record]]
molecule = "Cc1ccc(NC(=O)C(=O)[C@H](CC(C)C)NC(=O)[C@H](CC(=O)OC(C)(C)C)NC(=O)[C@H](CC(C)C)NC(=O)OCc2ccccc2)c(C)c1 [Compound 17]"
test_result = 11

[[record]]
molecule = "Cc1ccc(NC(=O)C(=O)C(CC(C)C)NC(=O)C(CC(C)C)NC(=O)C(CC(C)C)NC(=O)OCc2ccccc2)c(C)c1 (centres unmarked) [Compound 7, BSc4999]"
test_result = -26


Values from paper PMC6916368
